- TEST SYSTEM: gastrin/CCK-B receptor (Rattus norvegicus)
- EXPERIMENTAL PROTOCOL: Inhibitory activity against binding of [125I](Nle11)-HG-13 to gastrin receptor in vitro
Where a SMILES comes first, the peptide text is derived from it.
# IC50 per entry

COMPOUND	IC50, µM
CC(C)CC(NC(=O)[C@H](Cc1c[nH]c2ccccc12)NC(=O)OC(C)(C)C)C(=O)N[C@@H](CC(=O)O)C(N)=O (stereo not given in full)	50
CCCC[C@H](NC(=O)[C@H](Cc1c[nH]c2ccccc12)NC(=O)OC(C)(C)C)C(=O)N[C@@H](CC(=O)O)C(N)=O (HELM PEPTIDE1{[CC(C)(C)OC(=O)[*:2]].W.[Nle].D.[am]}$$$$V2.0)	30
CSCC[C@H](NC(=O)[C@H](Cc1c[nH]c2ccccc12)NC(=O)OC(C)(C)C)C(=O)N[C@@H](CC(=O)O)C(N)=O (HELM PEPTIDE1{[CC(C)(C)OC(=O)[*:2]].W.M.D.[am]}$$$$V2.0)	30
CC(C)(C)OC(=O)N[C@@H](Cc1c[nH]c2ccccc12)C(=O)N1CCC[C@H]1C(=O)N[C@@H](CC(=O)O)C(N)=O (HELM PEPTIDE1{[CC(C)(C)OC(=O)[*:2]].W.P.D.[am]}$$$$V2.0)	100
CC(C)C[C@H](NC(=O)[C@H](Cc1c[nH]c2ccccc12)NC(=O)OC(C)(C)C)C(=O)N[C@@H](CCC(=O)O)C(N)=O (HELM PEPTIDE1{[CC(C)(C)OC(=O)[*:2]].W.L.E.[am]}$$$$V2.0)	20

====

- TEST SYSTEM: gastrin/CCK-B receptor (Rattus norvegicus)
- EXPERIMENTAL PROTOCOL: Inhibitory activity against binding of [125I](Nle11)-HG-13 to gastrin receptor in vitro
Where a SMILES comes first, the peptide text is derived from it.
PARAMETER MEASURED: IC50 (µM)

COMPOUND	READOUT UNIT	NUMERIC READOUT
CSCC[C@H](NC(=O)[C@H](Cc1c[nH]c2ccccc12)NC(=O)CNC(=O)OC(C)(C)C)C(=O)N[C@@H](CC(=O)O)C(N)=O (HELM PEPTIDE1{[CC(C)(C)OC(=O)[*:2]].G.W.M.D.[am]}$$$$V2.0)	µM	25
CC(C)C[C@H](NC(=O)[C@H](Cc1c[nH]c2ccccc12)NC(=O)OC(C)(C)C)C(=O)N[C@@H](CC(=O)O)C(=O)N(C)C (HELM PEPTIDE1{[CC(C)(C)OC(=O)[*:2]].W.L.D.[CN(C)[*:1]]}$$$$V2.0)	µM	100

====

- TEST SYSTEM: gastrin/CCK-B receptor (Rattus norvegicus)
- EXPERIMENTAL PROTOCOL: Inhibitory activity against binding of [125I](Nle11)-HG-13 to gastrin receptor in vitro
Where a SMILES comes first, the peptide text is derived from it.
Entries whose IC50 is below 50 µM take label 1; entries at or above 50 µM take label 0.

COMPOUND	ASSIGNED CLASS
CC(C)C[C@H](NC(=O)[C@H](Cc1c[nH]c2ccccc12)NC(=O)OC(C)(C)C)C(=O)N[C@@H](C)C(N)=O (HELM PEPTIDE1{[CC(C)(C)OC(=O)[*:2]].W.L.A.[am]}$$$$V2.0)	label 0
CC(C)C[C@H](NC(=O)[C@H](Cc1c[nH]c2ccccc12)NC(=O)OCc1ccccc1)C(=O)N[C@@H](CC(=O)O)C(N)=O (HELM PEPTIDE1{[O=C(OCc1ccccc1)[*:2]].W.L.D.[am]}$$$$V2.0)	label 1
O=C(N[C@@H](Cc1c[nH]c2ccccc12)C(=O)O)c1ccc(Cl)cc1	label 0
CC(C)(C)OC(=O)N[C@@H](Cc1c[nH]c2ccccc12)C(=O)N[C@@H](Cc1ccccc1)C(=O)N[C@@H](CC(=O)O)C(N)=O (HELM PEPTIDE1{[CC(C)(C)OC(=O)[*:2]].W.F.D.[am]}$$$$V2.0)	label 1
